assay: ATG_CMV_CIS: Attagene CIS-FACTORIAL HepG2 Assay for human CMV (Internal Marker) (AID 2282928); conditions: HepG2 CMV promoter reporter, transcription factor profiling; actives raise or lower the signal;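 further: endpoint acts as a background internal control marker rather than a target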
Activity calls are given as the source filed them. How the source made its calls: active means hit-call score of the fitted dose curve at least 0.9, where 1 is the maximum; inactive means score below 0.9.
Tick one outcome: active, inactive

NNC(=O)c1cccc(C(=O)NN)c1 :: inactive
C[C@]12C=CC(=O)C=C1CC[C@@H]1[C@@H]2[C@@H](O)C[C@@]2(C)[C@H]1CC[C@]2(O)C(=O)CO :: inactive

input: Lab log entry: NC(=O)NNC(N)=O — outcome as called in the assay?
output: inactive

input: Test call for this molecule, please: COC(=O)/C=C\C(=O)O
output: inactive

input: Please let me know the test result on file for CC(C)(c1cc(Br)c(OCCO)c(Br)c1)c1cc(Br)c(OCCO)c(Br)c1 .
output: active

input: What did the test return for OC1OCCOC1O (centres undefined) ?
output: inactive

input: Kindly provide the recorded test outcome for the following molecule: Cc1cc(C)c(C)c(O)c1
output: inactive

input: Entry COc1ccc(NC(C)=O)cc1N : call = ?
output: inactive

input: Which outcome did this test record for the molecule O=c1c2ccccc2oc2ccccc12 ?
output: inactive

input: Query: recorded result category for CCN(CCC#N)c1ccc(N=Nc2c(Cl)cc([N+](=O)[O-])cc2Cl)cc1 in this test
output: inactive

input: Name the outcome recorded for CCCOCCOCCOCCO in the assay.
output: inactive

input: Per the records of this test, what outcome belongs to CC(=O)OCC(C)OC(C)=O (centres undefined) ?
output: inactive

input: Field: outcome | Entry: O=C1CCCC(=O)O1
output: inactive

input: Tell me the recorded outcome of this test for C=CC(C)(C)C .
output: inactive
